# ASSAY INFO: protein stability index of a GFP-peptide fusion (yeast GPS) (PSI 1-4); higher = more stable; sorted into four equal gates, so the index is relative within each strain
# RUN PARAMETERS: doa10∆
REPORTED METRIC: protein stability index

[
  {
    "CHAIN": "VKVHMDSETSDPNEVEI [DIS3]",
    "REPORTED METRIC": "protein stability index",
    "VAL": 3.29
  },
  {
    "CHAIN": "KGKKYQPKDLRAKKTRA [RPL35A]",
    "REPORTED METRIC": "protein stability index",
    "VAL": 2.85
  },
  {
    "CHAIN": "HGTYFLDNMTYSSVAGT [RRP4]",
    "REPORTED METRIC": "protein stability index",
    "VAL": 2.21
  },
  {
    "CHAIN": "QLGYIENSFYKKEASKT [POP1]",
    "REPORTED METRIC": "protein stability index",
    "VAL": 2.27
  },
  {
    "CHAIN": "LCTLNDSKGSLYSVKFA [YGL100W/SEH1]",
    "REPORTED METRIC": "protein stability index",
    "VAL": 2.94
  },
  {
    "CHAIN": "RIIGLSATLPNYEDVGR [BRR2]",
    "REPORTED METRIC": "protein stability index",
    "VAL": 2.23
  },
  {
    "CHAIN": "GRDTTDYLKNIIVENSG [RPN2]",
    "REPORTED METRIC": "protein stability index",
    "VAL": 3.21
  },
  {
    "CHAIN": "YKVDAEGKVTKLRRECS [RPS31]",
    "REPORTED METRIC": "protein stability index",
    "VAL": 2.68
  },
  {
    "CHAIN": "PFQVSSFVKETKLHSGD [SRB8]",
    "REPORTED METRIC": "protein stability index",
    "VAL": 2.96
  },
  {
    "CHAIN": "KRAFENFKKFNERRKDL [SMC3]",
    "REPORTED METRIC": "protein stability index",
    "VAL": 3.45
  },
  {
    "CHAIN": "VDPFDSDEEESVLDEQE [SNU114]",
    "REPORTED METRIC": "protein stability index",
    "VAL": 3.36
  },
  {
    "CHAIN": "TTRVGGGGAARRQAVDV [RPS5]",
    "REPORTED METRIC": "protein stability index",
    "VAL": 1.61
  },
  {
    "CHAIN": "VEPVTERTKLQEHTIFT [SNU114]",
    "REPORTED METRIC": "protein stability index",
    "VAL": 2.2
  },
  {
    "CHAIN": "KDEYLAQLDGRIGVLQA [NSL1]",
    "REPORTED METRIC": "protein stability index",
    "VAL": 2.08
  },
  {
    "CHAIN": "PGGQAALRALARSGLRI [RPS14A]",
    "REPORTED METRIC": "protein stability index",
    "VAL": 2.15
  },
  {
    "CHAIN": "YVKDARKDTVSREVLRY [RPC40]",
    "REPORTED METRIC": "protein stability index",
    "VAL": 3.64
  },
  {
    "CHAIN": "SIRAEAVAASSTKTGTP [POP1]",
    "REPORTED METRIC": "protein stability index",
    "VAL": 3.48
  },
  {
    "CHAIN": "LEVANDLQLLYVESDED [IRR1]",
    "REPORTED METRIC": "protein stability index",
    "VAL": 1.43
  },
  {
    "CHAIN": "SPDSTVNRSVVVSAVGE [YAR002W/NUP60]",
    "REPORTED METRIC": "protein stability index",
    "VAL": 3.11
  },
  {
    "CHAIN": "YLTPPHECRLRDMTYSA [RET1]",
    "REPORTED METRIC": "protein stability index",
    "VAL": 3.22
  },
  {
    "CHAIN": "KPEIDENGTLLVPPPRT [RPR2]",
    "REPORTED METRIC": "protein stability index",
    "VAL": 3.02
  },
  {
    "CHAIN": "AKSNEDKQDGTAKPAFS [YJL041W/NSP1]",
    "REPORTED METRIC": "protein stability index",
    "VAL": 3.03
  },
  {
    "CHAIN": "SPDGRNFQVEYAVKAVE [PRE10]",
    "REPORTED METRIC": "protein stability index",
    "VAL": 2.8
  },
  {
    "CHAIN": "PYFDYIFNDILAHVDQI [YJL039C/NUP192]",
    "REPORTED METRIC": "protein stability index",
    "VAL": 1.9
  },
  {
    "CHAIN": "YMKFSNKYLELCKLASN [RRI2]",
    "REPORTED METRIC": "protein stability index",
    "VAL": 1.64
  },
  {
    "CHAIN": "MSVQDTKAVEFSMGHIR [MED4]",
    "REPORTED METRIC": "protein stability index",
    "VAL": 3.24
  },
  {
    "CHAIN": "LKEVLYNDSATSGEAAA [RPN2]",
    "REPORTED METRIC": "protein stability index",
    "VAL": 1.45
  },
  {
    "CHAIN": "STIITKAINQELEDVAV [YCS4]",
    "REPORTED METRIC": "protein stability index",
    "VAL": 2.96
  },
  {
    "CHAIN": "RLQAANSMEYTGKITKM [CDC53]",
    "REPORTED METRIC": "protein stability index",
    "VAL": 2.99
  },
  {
    "CHAIN": "HADKDTFSSSISTYIST [POP8]",
    "REPORTED METRIC": "protein stability index",
    "VAL": 2.61
  },
  {
    "CHAIN": "TCVAKKGIAKEHAKWGP [RPB3]",
    "REPORTED METRIC": "protein stability index",
    "VAL": 3.31
  },
  {
    "CHAIN": "YFRILLPYERHMISQEG [SWI1]",
    "REPORTED METRIC": "protein stability index",
    "VAL": 1.37
  },
  {
    "CHAIN": "ISNYNTKYTDDMATGSN [SRB8]",
    "REPORTED METRIC": "protein stability index",
    "VAL": 3.04
  },
  {
    "CHAIN": "PKNVKGEEDADEEETAE [RPN1]",
    "REPORTED METRIC": "protein stability index",
    "VAL": 3.21
  },
  {
    "CHAIN": "SSFSLTFFPRCIIAVSC [POP1]",
    "REPORTED METRIC": "protein stability index",
    "VAL": 1.93
  },
  {
    "CHAIN": "AIDHLKAELEKQKSWVP [YIL149C/MLP2]",
    "REPORTED METRIC": "protein stability index",
    "VAL": 3.05
  },
  {
    "CHAIN": "FPNIAIRPTELRLPFSA [PRP8]",
    "REPORTED METRIC": "protein stability index",
    "VAL": 2.11
  },
  {
    "CHAIN": "RVNNPNVSLIKIEGVAT [RPL33A]",
    "REPORTED METRIC": "protein stability index",
    "VAL": 2.54
  },
  {
    "CHAIN": "EKASGFEDSMQFKKLTH [PRP8]",
    "REPORTED METRIC": "protein stability index",
    "VAL": 2.81
  }
]
